Values compiled from patent US20240199746A1.

# Affinity ELISA CPE mutant ratio (1:3, pH 6.0/7.4) per entry
- target_or_test_system: T1, Ax1 protein, extracellular domain (human, UniProt P30530 26-451)
- T1 construct: extracellular domain; also called Axl; Ark
- T1 sequence (looked up): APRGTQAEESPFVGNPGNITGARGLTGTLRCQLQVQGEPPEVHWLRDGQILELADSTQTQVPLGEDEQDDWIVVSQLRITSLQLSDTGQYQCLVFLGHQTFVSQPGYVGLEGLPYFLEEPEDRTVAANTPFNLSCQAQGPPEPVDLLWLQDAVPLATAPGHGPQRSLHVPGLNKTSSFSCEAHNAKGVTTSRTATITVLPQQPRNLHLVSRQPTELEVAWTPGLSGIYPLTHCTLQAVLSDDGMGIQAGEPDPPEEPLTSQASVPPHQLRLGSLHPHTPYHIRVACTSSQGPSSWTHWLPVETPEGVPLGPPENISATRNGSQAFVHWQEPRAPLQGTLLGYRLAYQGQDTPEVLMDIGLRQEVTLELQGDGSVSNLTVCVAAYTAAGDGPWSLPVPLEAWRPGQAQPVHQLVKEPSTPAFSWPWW
- assay_explanation: ELISA, mutant diluted 1:3
# print the numeric value only

Form: binder = LC-F092N (antibody, V domains shown, CPE single point mutant) VH: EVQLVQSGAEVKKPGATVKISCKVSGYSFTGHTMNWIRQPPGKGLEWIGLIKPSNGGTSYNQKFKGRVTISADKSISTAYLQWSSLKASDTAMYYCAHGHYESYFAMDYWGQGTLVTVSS VL: DIQMTQSPSSLSASVGDRVTITCKASQDVSSAVAWYQQKPGQAPRLLIYWASTRHTGVPSRFSGSGSGTEFTLTISSLQPDDFATYYCQEHNSTPLTFGQGTKVEIK ; Affinity ELISA CPE mutant ratio (1:3, pH 6.0/7.4) = 1.93

More entries:
Form: binder = HC-Y104P (antibody, V domains shown, CPE single point mutant) VH: EVQLVQSGAEVKKPGATVKISCKVSGYSFTGHTMNWIRQPPGKGLEWIGLIKPSNGGTSYNQKFKGRVTISADKSISTAYLQWSSLKASDTAMYYCAHGHYESPFAMDYWGQGTLVTVSS VL: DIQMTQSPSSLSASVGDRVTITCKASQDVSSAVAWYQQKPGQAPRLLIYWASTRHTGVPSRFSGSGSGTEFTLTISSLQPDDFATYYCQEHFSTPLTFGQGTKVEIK ; Affinity ELISA CPE mutant ratio (1:3, pH 6.0/7.4) = 2.54

Form: binder = LC-A051P (antibody, V domains shown, CPE single point mutant) VH: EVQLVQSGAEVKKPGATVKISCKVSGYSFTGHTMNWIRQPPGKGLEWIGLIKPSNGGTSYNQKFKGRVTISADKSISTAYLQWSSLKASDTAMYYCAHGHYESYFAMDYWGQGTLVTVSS VL: DIQMTQSPSSLSASVGDRVTITCKASQDVSSAVAWYQQKPGQAPRLLIYWPSTRHTGVPSRFSGSGSGTEFTLTISSLQPDDFATYYCQEHFSTPLTFGQGTKVEIK ; Affinity ELISA CPE mutant ratio (1:3, pH 6.0/7.4) = 1.92
